koff by entry:
# measuredOn: T1, recombinant human GPC1 protein (R&D Systems) (human, UniProt P35052 24-530)
# T1 construct: Bought recombinant protein (R&D Systems); also called human GPC-1 antigen; Glypican-1
# T1 sequence: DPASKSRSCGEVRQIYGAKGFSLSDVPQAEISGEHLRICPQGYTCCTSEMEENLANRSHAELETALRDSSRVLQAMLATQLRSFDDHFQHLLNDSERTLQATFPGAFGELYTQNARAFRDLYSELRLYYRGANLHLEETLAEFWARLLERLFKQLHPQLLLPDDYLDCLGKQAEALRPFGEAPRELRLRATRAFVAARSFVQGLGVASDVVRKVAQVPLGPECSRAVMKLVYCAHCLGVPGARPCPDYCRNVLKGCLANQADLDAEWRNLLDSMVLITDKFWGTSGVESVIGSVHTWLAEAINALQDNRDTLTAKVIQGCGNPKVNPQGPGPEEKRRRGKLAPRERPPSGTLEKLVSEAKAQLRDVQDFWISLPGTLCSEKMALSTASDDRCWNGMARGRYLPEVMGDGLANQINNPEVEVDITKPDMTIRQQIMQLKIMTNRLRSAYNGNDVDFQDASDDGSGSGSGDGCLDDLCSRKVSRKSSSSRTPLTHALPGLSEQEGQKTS
# experimentNotes: SPR (Biacore 8K); antibody captured by anti-human IgG (Fc) on a CM5 chip, recombinant human GPC1 flowed over
# number only, unit s⁻¹ dropped from output

Given humanized anti-GPC1 monoclonal antibody clone T10 (antibody, human IgG4 S228P, kappa, V domains shown, IgG) VH: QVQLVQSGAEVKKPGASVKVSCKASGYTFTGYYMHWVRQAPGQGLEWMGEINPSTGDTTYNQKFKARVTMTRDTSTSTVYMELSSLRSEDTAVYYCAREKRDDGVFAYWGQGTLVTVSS VL: EIVLTQSPSTLSASVGDRVTITCRASQSISSWLAWYQQIPGKAPRILISSASILQSGAPSRFSGSGFGTDFTLTISSVQPEDFATYYCQQAKSYPLTFGGGTKLEIKR , state its recorded koff.
0.0015

Report koff for humanized anti-GPC1 monoclonal antibody clone T22 (antibody, human IgG4 S228P, kappa, V domains shown, IgG) VH: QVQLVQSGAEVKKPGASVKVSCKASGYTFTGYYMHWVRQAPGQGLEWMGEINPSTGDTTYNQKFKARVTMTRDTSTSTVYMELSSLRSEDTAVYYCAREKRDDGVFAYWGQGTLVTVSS VL: AIQMTQSPASLSASLGDRITITCRTSQTVAGYLNWYQQTPGNAPKLLIYSASNLQSGVPSRFSGSGSGRDFSLTISSLQSEDSATYYCQHSYSTPYTFGQGTKVEIKR please.
0.0506

Given the entry humanized anti-GPC1 monoclonal antibody clone T56 (antibody, human IgG4 S228P, kappa, V domains shown, IgG) VH: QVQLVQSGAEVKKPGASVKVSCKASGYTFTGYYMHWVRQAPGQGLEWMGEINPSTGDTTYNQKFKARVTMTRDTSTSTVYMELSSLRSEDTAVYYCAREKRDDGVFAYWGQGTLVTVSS VL: DIVMTQSPSTLSASVGDRVTIICRASQSIGPWLAWYQQKSGKAPKLLIYGASNLQSGVPSRFSGSGYGTDFTLTISSLQPEDFATYYCQQTSSAPFTFGPGTKVDIKR , report its measured koff.
0.0018

The values you see were collected from patent US20230250188A1.
